- target.entity: Metabotropic glutamate receptor 5 (Rattus norvegicus, UniProt P31424)
- Sequence (P31424 whole entry): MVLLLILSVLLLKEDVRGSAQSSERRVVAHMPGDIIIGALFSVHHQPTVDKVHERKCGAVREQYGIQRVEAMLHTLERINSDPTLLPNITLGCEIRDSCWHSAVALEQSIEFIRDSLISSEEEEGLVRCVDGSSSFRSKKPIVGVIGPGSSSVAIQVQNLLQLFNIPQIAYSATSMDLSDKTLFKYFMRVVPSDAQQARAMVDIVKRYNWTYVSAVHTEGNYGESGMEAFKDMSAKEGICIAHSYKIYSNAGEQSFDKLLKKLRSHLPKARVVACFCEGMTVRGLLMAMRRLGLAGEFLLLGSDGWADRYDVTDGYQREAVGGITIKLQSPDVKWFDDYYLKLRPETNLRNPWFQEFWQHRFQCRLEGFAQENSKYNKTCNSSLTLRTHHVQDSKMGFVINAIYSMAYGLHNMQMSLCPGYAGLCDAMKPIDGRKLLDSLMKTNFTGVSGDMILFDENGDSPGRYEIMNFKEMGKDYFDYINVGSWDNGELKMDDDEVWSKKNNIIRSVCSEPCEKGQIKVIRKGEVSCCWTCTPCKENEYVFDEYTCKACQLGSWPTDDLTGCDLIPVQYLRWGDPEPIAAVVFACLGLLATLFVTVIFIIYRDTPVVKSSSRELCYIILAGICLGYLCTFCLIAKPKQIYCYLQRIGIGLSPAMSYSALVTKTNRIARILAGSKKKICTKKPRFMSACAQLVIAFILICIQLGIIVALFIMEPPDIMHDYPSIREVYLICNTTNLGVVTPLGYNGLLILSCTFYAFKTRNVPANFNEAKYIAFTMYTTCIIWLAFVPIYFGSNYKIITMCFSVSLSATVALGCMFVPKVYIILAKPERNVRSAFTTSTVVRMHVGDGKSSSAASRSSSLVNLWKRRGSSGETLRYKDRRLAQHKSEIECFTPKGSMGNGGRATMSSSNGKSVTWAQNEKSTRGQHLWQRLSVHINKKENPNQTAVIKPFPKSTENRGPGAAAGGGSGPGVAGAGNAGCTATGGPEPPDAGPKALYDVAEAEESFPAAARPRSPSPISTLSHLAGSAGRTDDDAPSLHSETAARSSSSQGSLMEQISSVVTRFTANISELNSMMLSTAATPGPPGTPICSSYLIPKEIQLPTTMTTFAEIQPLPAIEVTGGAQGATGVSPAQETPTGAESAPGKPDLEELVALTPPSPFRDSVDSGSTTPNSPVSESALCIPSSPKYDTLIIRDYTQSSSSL
- method.summary: Positive allosteric modulation of rat mGlu5 receptor expressed in HEK293A cells assessed as increase in glutamate induced-calcium mobilization preincubated for 2.3 mins followed by glutamate addition measured for 1.9 mins by Fluo-4 AM dye based fluorescence assay
measure: EC50

{"smiles.entry": "O=c1nc(OCCOc2ccccc2)ccn1-c1ccc(F)c(F)c1", "assay.value": "0.398 µM"}

Hello, the source for this data is BindingDB's records for doi:10.1021/acsmedchemlett.7b00249, in case you need it.
